B1: TNNI2 (parent)
chain: DWRKNIEEKSGMEGRKKMFESES

Variants of: B1
method.notes: protein stability index of a GFP-peptide fusion (GPS, HEK-293T) (PSI 1-6); higher = more stable;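 further: lentivirally expressed fusions sorted by FACS into six bins by GFP to DsRed ratio, PSI derived from sequencing read proportions per bin multiplied by bin number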
experimental.conditions: c terminus: native
Listed here are variants together with their documented protein stability index.
Keep it simple and answer with nothing but the number.

>>> df
   variant_annotation         measurement_type  test_value
0                G14C  protein stability index        2.56

Read the next record carefully.
Lookup: Which measured protein stability index value corresponds to "M12F" ?
Found: 2.38

Attribution: the supplement of paper PMC10567573
